target: Proto-oncogene tyrosine-protein kinase ROS (Homo sapiens) (UniProt P08922); conditions: at 1 µM
Sequence (P08922 whole entry): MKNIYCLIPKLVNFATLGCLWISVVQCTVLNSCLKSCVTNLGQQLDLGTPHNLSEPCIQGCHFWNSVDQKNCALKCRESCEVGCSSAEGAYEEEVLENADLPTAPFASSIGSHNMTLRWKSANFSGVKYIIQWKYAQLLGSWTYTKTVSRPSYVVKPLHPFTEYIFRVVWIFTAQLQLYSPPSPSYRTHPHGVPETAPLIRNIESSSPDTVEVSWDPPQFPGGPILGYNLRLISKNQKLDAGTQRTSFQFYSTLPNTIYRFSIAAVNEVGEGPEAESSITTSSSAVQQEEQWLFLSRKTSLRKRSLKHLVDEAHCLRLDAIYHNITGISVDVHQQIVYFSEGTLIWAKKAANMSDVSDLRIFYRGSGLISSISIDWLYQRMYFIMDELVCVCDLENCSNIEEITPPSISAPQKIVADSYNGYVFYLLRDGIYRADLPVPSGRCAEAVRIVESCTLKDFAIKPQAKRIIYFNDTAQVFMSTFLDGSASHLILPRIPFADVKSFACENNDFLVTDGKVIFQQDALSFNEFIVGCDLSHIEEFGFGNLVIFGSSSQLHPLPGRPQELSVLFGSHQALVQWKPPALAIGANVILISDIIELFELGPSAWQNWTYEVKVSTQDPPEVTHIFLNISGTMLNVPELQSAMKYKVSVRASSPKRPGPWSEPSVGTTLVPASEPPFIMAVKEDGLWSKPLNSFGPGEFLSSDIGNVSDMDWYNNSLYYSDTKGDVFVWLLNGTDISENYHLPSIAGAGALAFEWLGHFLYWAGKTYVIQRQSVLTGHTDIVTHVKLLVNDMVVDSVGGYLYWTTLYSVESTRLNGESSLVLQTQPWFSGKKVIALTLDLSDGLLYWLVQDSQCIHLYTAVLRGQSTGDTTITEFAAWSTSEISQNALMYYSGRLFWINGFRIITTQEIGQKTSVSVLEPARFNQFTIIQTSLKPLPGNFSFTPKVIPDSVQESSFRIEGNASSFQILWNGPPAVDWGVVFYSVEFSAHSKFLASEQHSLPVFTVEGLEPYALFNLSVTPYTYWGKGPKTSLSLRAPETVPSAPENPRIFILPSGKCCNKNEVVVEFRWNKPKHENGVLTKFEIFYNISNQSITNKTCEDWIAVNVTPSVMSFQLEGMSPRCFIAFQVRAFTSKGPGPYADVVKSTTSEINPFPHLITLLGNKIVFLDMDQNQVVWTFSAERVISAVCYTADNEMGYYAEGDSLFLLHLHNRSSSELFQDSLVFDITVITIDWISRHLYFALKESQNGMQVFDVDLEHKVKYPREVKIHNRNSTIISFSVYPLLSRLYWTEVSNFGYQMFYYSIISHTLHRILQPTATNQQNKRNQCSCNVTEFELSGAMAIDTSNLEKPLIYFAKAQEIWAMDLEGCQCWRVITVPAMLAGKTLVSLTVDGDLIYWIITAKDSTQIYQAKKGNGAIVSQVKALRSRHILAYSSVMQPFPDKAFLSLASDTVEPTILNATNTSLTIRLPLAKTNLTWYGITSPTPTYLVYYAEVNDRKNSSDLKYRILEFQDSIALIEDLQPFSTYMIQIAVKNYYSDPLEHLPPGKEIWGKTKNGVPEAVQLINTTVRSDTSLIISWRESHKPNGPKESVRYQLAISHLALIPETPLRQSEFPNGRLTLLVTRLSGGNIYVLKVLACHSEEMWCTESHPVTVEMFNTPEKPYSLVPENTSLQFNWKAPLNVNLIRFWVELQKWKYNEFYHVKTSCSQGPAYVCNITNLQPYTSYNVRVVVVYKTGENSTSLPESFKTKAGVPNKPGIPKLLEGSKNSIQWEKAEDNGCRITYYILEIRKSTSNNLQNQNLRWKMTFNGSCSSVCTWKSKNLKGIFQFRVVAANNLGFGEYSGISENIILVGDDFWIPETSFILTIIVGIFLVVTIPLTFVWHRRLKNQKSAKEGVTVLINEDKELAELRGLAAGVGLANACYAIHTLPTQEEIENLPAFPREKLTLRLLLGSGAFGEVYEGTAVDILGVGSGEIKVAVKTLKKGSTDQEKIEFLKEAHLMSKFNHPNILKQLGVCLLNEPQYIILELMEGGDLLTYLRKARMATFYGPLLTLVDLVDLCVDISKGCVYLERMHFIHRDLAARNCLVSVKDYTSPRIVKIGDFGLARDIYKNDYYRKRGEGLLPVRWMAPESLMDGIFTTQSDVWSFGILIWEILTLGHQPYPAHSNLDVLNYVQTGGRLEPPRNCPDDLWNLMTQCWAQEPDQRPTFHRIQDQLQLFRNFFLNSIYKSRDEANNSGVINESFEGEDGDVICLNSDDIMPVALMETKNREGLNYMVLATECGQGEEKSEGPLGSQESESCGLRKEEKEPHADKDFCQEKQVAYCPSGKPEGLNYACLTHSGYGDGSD
Consider the following molecules and their measured residual activity readings.
Field format: number, assumed %, no unit text.

smiles_code: CCOc1cc2ncnc(Nc3cccc(Br)c3)c2cc1OCC
system_under_test: Proto-oncogene tyrosine-protein kinase ROS (Homo sapiens) (UniProt P08922)
reported_measurement: 103

Given item c1ccc(-c2n[nH]cc2-c2ccnc3ccccc23)nc1 , the value recorded as its residual activity is 98

Given item CC(C)n1cnc2/c(=N/c3cccc(Cl)c3)nc(NCCO)[nH]c21 , the value recorded as its residual activity is 77

Given item Cn1cnc2cc3c(Nc4cccc(Br)c4)ncnc3cc21 , the value recorded as its residual activity is 91

Given item Cc1cc2ncc(-c3ccccc3)nc2cc1C , the value recorded as its residual activity is 101

----------
biological target: CDK9/cyclin T1 (Homo sapiens) (UniProt O60563+P50750); conditions: at 10 µM
Field: label. Allowed values: met (residual activity < 80%) or not met (residual activity >= 80%).

Examples from the recorded data:
smiles_code: COc1ccc(C(=O)Nc2sc3c(c2C(N)=O)CCCC3)cc1OC
category_label: not met
--
smiles_code: Cc1ccc(NC2=CC(=O)c3sc(C)nc3C2=O)cc1
category_label: not met
--
smiles_code: COc1ccc(CNc2nc(N(CCO)CCO)nc3c2ncn3C(C)C)cc1
category_label: met
--
smiles_code: c1ccc(-c2n[nH]cc2-c2ccnc3ccccc23)nc1
category_label: met

Query: Is residual activity strictly under 80% for the entry CC#CC(=O)Nc1cc2c(Nc3ccc(F)c(Cl)c3)ncnc2cn1 ?
Result: not met

----------
target: Serine/threonine-protein kinase 10 (Homo sapiens) (UniProt O94804); conditions: at 10 µM
Sequence (O94804 whole entry, looked up): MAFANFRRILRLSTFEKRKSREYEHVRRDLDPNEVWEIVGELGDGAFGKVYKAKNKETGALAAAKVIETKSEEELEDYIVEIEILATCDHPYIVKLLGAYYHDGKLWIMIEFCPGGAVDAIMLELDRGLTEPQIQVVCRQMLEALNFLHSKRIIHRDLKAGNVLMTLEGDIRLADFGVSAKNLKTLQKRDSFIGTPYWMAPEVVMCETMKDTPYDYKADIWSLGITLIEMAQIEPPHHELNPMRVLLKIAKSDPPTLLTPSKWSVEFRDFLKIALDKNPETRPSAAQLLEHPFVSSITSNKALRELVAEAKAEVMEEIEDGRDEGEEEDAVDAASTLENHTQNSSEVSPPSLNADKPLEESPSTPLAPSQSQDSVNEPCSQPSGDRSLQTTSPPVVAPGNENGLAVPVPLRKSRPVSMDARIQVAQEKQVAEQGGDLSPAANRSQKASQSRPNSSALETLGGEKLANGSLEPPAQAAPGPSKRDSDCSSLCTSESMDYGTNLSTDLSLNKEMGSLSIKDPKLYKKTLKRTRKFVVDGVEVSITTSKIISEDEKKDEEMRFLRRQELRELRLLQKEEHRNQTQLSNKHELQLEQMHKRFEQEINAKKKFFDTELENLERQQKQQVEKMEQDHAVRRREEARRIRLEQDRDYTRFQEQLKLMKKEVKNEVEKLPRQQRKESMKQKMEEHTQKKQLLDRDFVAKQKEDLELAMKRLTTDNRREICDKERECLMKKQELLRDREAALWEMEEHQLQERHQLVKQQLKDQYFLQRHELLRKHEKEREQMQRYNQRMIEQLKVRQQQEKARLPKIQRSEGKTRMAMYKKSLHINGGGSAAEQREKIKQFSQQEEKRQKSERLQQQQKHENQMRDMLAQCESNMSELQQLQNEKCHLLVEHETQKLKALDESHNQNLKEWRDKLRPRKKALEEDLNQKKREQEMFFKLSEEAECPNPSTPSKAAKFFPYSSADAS
Consider the following compounds and their measured residual activity readings.
Field format: number, assumed %, no unit text.

Illustrative cases are given below, each with its answer.
smiles_code: CO[C@H]1C[C@@H]2CC[C@@H](C)[C@@](O)(O2)C(=O)C(=O)N2CCCC[C@H]2C(=O)O[C@H]([C@H](C)C[C@@H]2CC[C@@H](O)[C@H](OC)C2)CC(=O)[C@H](C)/C=C(\C)[C@@H](O)[C@@H](OC)C(=O)[C@H](C)C[C@H](C)/C=C/C=C/C=C/1C
residual activity, %: 90
--
smiles_code: Cn1nc2c3c(cccc31)C(=O)c1ccccc1-2
residual activity, %: 68
--
smiles_code: N#C/C(=C(\N)Sc1ccc(N)cc1)c1ccccc1C(F)(F)F
residual activity, %: 83
--
smiles_code: CC(C)n1cnc2c(NCc3ccccc3)nc(NCCCO)nc21
residual activity, %: 96
--
smiles_code: O=c1c2ccccc2[nH]c(=S)n1CCN1CCC(=C(c2ccc(F)cc2)c2ccc(F)cc2)CC1
residual activity, %: 97

Given item Oc1n[nH]c2nnc(-c3c(-c4ccccc4)nn4ccccc34)cc12 , the value recorded as its residual activity is 79

----------
target: Cyclin-dependent kinase 1/cyclin B1 (Homo sapiens) (UniProt P06493+P14635); conditions: at 10 µM
Sequence (P06493 whole entry, looked up): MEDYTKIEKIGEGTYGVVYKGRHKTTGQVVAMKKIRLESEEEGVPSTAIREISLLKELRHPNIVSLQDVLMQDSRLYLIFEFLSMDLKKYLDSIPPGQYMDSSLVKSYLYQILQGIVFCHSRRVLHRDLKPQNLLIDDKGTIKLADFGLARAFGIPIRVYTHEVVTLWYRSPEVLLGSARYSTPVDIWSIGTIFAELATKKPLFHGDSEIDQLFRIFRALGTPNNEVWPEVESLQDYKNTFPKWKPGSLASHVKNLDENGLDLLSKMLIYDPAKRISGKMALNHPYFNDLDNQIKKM
Sequence (P14635 whole entry, looked up): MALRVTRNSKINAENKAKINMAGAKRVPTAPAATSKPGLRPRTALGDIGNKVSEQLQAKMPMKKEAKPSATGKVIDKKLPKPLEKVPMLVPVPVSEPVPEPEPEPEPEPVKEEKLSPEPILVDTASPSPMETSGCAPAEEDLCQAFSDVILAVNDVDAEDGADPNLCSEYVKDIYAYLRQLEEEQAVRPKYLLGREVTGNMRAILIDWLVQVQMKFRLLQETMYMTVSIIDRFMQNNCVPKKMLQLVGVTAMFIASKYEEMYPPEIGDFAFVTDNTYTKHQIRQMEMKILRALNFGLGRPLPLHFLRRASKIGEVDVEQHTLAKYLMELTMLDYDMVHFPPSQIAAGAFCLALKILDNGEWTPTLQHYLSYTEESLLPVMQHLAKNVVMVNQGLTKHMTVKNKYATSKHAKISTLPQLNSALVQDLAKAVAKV
property_label: residual activity (%)
Field format: number, assumed %, no unit text.

Illustrative cases are given below, each with its answer.
smiles_code: Cc1cc2ncc(-c3ccccc3)nc2cc1C
uom: %
residual activity: 103

smiles_code: O=C1Nc2cc(Br)ccc2/C1=C1/Nc2ccccc2/C1=N\O
uom: %
residual activity: 12

smiles_code: CO[C@H]1C[C@@H]2CC[C@@H](C)[C@@](O)(O2)C(=O)C(=O)N2CCCC[C@H]2C(=O)O[C@H]([C@H](C)C[C@@H]2CC[C@@H](O)[C@H](OC)C2)CC(=O)[C@H](C)/C=C(\C)[C@@H](O)[C@@H](OC)C(=O)[C@H](C)C[C@H](C)/C=C/C=C/C=C/1C
uom: %
residual activity: 108

Given item O=Nc1c(-c2c(O)[nH]c3ccccc23)[nH]c2ccccc12 , the value recorded as its residual activity is 19

Given item COc1ccc(S(=O)(=O)N(CCO)c2ccccc2CN(C)C/C=C/c2ccc(Cl)cc2)cc1 , the value recorded as its residual activity is 90
